target: AChE (from electric eel) (Electrophorus electricus)
Construct: AChE (from electric eel); from tissue
Sequence (O42275 24-633): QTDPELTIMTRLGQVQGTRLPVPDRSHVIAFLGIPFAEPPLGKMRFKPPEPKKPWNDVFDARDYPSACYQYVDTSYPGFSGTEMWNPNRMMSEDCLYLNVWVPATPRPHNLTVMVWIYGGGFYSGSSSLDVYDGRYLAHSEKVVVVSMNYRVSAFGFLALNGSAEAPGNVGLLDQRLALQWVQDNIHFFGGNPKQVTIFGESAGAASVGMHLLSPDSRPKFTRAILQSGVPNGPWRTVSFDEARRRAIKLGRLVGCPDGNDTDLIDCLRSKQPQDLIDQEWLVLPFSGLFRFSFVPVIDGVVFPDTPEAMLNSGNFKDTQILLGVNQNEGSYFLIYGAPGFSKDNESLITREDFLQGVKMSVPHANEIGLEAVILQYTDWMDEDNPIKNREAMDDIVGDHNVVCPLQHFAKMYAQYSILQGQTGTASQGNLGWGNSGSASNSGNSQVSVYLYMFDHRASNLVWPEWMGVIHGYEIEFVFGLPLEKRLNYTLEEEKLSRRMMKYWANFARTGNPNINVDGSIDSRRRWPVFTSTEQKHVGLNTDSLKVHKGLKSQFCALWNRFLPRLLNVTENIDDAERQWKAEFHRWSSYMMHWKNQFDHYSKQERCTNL
test summary: biochemical
condition set: electric eel AChE, Cheng–Prusoff from IC50; read-out: Ki AchE
One threshold, 4 µM, splits the recorded Ki values: lower ones are criterion met, equal or higher ones are criterion not met.

molecule: N=C(N)c1cccc(NC(=O)CC(=O)N2CCC(Oc3ccc(F)c(F)c3)CC2)c1 [Compound 22c]
class label: criterion met

molecule: N=C(N)c1cccc(NC(=O)CC(=O)NCc2ccc(-c3ccc(F)cc3)cc2)c1 [Compound 19g]
class label: criterion not met

molecule: CC(C)N1CCC(Oc2ccc(NC(=O)CC(=O)Nc3cccc(C(=N)N)c3)cc2)CC1 [Compound 23b]
class label: criterion met

molecule: N=C(N)c1cccc(NC(=O)CC(=O)N2CCN(c3ccc(F)cc3)CC2)c1 [Compound 21a]
class label: criterion not met

molecule: N=C(N)c1cccc(NC(=O)CC(=O)N2CCC(Oc3ccc(F)cc3F)CC2)c1 [Compound 22b]
class label: criterion met

molecule: N=C(N)c1cccc(NC(=O)CC(=O)Nc2cccc(OCCc3ccc(F)cc3)c2)c1 [Compound 20a]
class label: criterion not met

---

target: BChE (from horse serum) (Equus caballus, UniProt P81908)
Construct: BChE (from horse serum); from tissue; host or cells: horse serum
Sequence (P81908 whole entry): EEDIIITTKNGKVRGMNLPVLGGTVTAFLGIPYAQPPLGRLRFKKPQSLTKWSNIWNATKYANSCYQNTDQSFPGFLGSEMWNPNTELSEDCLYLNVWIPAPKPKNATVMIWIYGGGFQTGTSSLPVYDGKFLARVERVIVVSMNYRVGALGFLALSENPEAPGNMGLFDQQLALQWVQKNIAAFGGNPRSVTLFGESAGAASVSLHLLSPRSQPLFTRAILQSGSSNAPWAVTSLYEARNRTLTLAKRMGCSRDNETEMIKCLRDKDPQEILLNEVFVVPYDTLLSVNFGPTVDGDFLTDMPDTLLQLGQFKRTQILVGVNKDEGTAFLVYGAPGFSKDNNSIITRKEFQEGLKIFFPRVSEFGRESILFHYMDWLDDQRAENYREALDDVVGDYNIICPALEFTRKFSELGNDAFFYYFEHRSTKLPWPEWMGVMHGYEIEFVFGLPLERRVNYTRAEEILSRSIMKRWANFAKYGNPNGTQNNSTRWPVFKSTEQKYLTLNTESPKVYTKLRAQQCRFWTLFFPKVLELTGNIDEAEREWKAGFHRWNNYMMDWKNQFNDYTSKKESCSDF
test summary: biochemical
condition set: horse serum BChE, Cheng–Prusoff from IC50
measured quantity: log10 Ki (log10 of the value in µM)

molecule: N=C(N)c1cccc(NC(=O)CC(=O)Nc2cccc(OCCc3ccc(F)cc3)c2)c1 [Compound 20a]
measurement: 0.01
//
molecule: N=C(N)c1cccc(NC(=O)CC(=O)Nc2ccc(OC3CCNCC3)cc2)c1 [Compound 23a]
measurement: 1.00
//
molecule: N=C(N)c1cccc(NC(=O)CC(=O)N2CCC(Oc3ccc(F)c(F)c3)CC2)c1 [Compound 22c]
measurement: 1.04
//
molecule: N=C(N)c1cccc(NC(=O)CC(=O)NCc2ccc(-c3cc(F)cc(F)c3)cc2)c1 [Compound 19i]
measurement: 0.90
//
molecule: N=C(N)c1cccc(NC(=O)CC(=O)NCc2ccc(-c3ccc(F)cc3F)cc2)c1 [Compound 19h]
measurement: 0.18
//
molecule: CC(C)(C(=O)NCc1ccc(-c2ccc(F)cc2F)cc1)C(=O)Nc1cccc(C(=N)N)c1 [Compound 19l]
measurement: 0.19
//
molecule: N=C(N)c1cccc(NC(=O)CC(=O)NCc2ccc(-c3ccccc3F)cc2)c1 [Compound 19e]
measurement: 0.89
//
molecule: N=C(N)c1cccc(NC(=O)CC(=O)N2CCN(c3ccc(F)cc3)CC2)c1 [Compound 21a]
measurement: 1.00
//
molecule: COc1ccc(CCOc2cccc(NC(=O)CC(=O)Nc3cccc(C(=N)N)c3)c2)cc1 [Compound 20b]
measurement: 0.77
//
molecule: CC(C)N1CCC(Oc2ccc(NC(=O)CC(=O)Nc3cccc(C(=N)N)c3)cc2)CC1 [Compound 23b]
measurement: -0.19

---

target: bovine thrombin (Bos taurus, UniProt P00735)
pKi: −log10 of the molar value.
measured quantity: pKi

compound: N=C(N)c1ccc(NC(=O)CC(=O)NCc2ccc(-c3ccccc3)cc2)cc1 [Compound 19c]
measured quantity: pKi
readout relation: <
measurement: 4.30

compound: Cc1ccc(CNC(=O)CC(=O)Nc2ccc(C(=N)N)cc2)cc1 [Compound 19a]
measured quantity: pKi
readout relation: =
measurement: 4.44

compound: N=C(N)c1cccc(NC(=O)CC(=O)NCc2ccc(-c3cc(F)cc(F)c3)cc2)c1 [Compound 19i]
measured quantity: pKi
readout relation: =
measurement: 4.57

compound: N=C(N)c1cccc(NC(=O)CC(=O)NCc2ccc(-c3ccccc3F)cc2)c1 [Compound 19e]
measured quantity: pKi
readout relation: =
measurement: 4.84

compound: N=C(N)c1ccc(NC(=O)CNC(=O)Cc2ccccc2)cc1 [Compound 4a]
measured quantity: pKi
readout relation: =
measurement: 4.40

These entries and their values trace back to paper PMC9268553.
